Cited source for all entries: patent US20210198277A1

Catalogue of pIC50 values
Biological target: UniProtKB Q9H9B1
Sequence (Q9H9B1 whole entry, species assumed): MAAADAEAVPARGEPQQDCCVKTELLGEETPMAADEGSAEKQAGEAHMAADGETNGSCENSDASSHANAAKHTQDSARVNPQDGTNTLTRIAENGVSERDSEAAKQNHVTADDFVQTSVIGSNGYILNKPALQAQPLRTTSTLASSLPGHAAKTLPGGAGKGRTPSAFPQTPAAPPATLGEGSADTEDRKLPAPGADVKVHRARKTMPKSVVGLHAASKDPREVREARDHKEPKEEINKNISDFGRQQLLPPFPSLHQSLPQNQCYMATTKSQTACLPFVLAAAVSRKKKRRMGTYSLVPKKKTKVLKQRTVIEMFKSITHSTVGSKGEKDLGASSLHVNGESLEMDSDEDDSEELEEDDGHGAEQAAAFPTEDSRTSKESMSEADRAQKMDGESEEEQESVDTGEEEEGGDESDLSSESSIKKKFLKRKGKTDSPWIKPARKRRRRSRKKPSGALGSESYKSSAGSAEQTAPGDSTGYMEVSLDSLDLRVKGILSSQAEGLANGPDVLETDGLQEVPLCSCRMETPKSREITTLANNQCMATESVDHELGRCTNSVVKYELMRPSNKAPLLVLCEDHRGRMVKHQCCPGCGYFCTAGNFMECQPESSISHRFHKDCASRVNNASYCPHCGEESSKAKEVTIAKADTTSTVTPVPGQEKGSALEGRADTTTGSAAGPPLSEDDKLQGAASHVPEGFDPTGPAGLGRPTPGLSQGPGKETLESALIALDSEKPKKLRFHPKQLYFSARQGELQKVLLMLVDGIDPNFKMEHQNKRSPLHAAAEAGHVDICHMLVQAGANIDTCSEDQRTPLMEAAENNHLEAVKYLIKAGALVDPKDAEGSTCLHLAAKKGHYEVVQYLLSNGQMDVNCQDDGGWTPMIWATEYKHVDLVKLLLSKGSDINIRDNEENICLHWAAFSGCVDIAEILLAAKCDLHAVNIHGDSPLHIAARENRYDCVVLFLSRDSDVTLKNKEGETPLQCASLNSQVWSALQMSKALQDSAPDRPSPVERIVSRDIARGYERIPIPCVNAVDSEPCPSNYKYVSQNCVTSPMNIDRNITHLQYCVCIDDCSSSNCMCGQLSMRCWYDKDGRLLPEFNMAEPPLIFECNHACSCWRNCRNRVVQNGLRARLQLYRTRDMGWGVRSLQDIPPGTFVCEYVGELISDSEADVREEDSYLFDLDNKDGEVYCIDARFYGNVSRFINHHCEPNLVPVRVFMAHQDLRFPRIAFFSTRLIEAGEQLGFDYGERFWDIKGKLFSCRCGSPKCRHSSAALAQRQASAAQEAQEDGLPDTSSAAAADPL
Test: EHMT1 enzyme assay on peptide substrate (EHMT1 PEP)
Assay type: biochemical
Conditions: Table VI; read-out: EHMT1 PEP IC50
pIC50: −log10 of the molar value.

// solved cases for pIC50 follow
CNc1cc(C)nc(Nc2cnc(OC)c(OC[C@@H]3CCN(C4CCC4)C3)c2)n1
> 7.00
CNc1ccnc(Nc2ccc(OC)c(CNCCN3CCC3)c2)n1
> 7.00
COc1cc2c(C3CCN(CC(F)(F)F)CC3)cc(C)nc2cc1OCCCN1CCCC1
6.00 to 7.00
CNc1cc(C2CCN([C@H]3CCOC3)CC2)c2cc(OC)c(OCCCN3CCCC3)cc2n1
> 7.00
CNc1cc(C)nc(Nc2cnc(OC)c(O)c2)n1
< 5.00

Look up pIC50 for this molecule: CNc1nc2cc(OCCCN3CCCC3)c(OC)cc2cc1F
5.00 to 6.00

Look up pIC50 for this molecule: CCNc1cc(C2CCOCC2)c2cc(OC)c(OCCCN3CCCC3)cc2n1
> 7.00

Look up pIC50 for this molecule: CNc1cc(C2CCOCC2)c2cc(OC)c(OC[C@@H]3CCNC3)cc2n1
> 7.00

Look up pIC50 for this molecule: CCN1CC(COc2cc3nc(C)cc(C4CCN(C)CC4)c3cc2OC)C1
> 7.00
